- System Under Test: 20S proteasome (Homo sapiens) (UniProt P49721+P20618+P28074+P28062+P28065+P28072+P25786+P25787+P25788+P25789+P28066+P60900+O14818+Q8TAA3+P40306+A5LHX3+P49720+P28070+Q99436)
- Protocol Notes: Activation of human erythrocyte-derived 20s proteosome using CT-L as peptide substrate by fluorescence based analysis
- Assay type: cell-based
- Condition Details: filed as activator
Measurement Kind: EC200 (µM)

INSERT INTO assay_data (smiles_data, measurement_kind, recorded_result) VALUES
  ('CC(C)CNc1cc(Nc2ccc(N3CCOCC3)cc2)c2c3c(onc13)-c1ccccc1C2=O', 'EC200', 0.12),
  ('Cc1cccc(Nc2cc(NCCC(C)C)c3noc4c3c2C(=O)c2ccccc2-4)c1', 'EC200', 0.19),
  ('Cc1ccc(Nc2cc(NCC(C)C)c3noc4c3c2C(=O)c2ccccc2-4)cc1', 'EC200', 0.72),
  ('Cc1ccc(Nc2cc(NCC(C)C)c(N)c3c2C(=O)c2ccccc2C3=O)cc1', 'EC200', 0.66),
  ('Cc1ccccc1Nc1cc(NCC(C)C)c2noc3c2c1C(=O)c1ccccc1-3', 'EC200', 0.67);

* * *

Measured EC200 values are reported for all entries that follow.
- System Under Test: 20S proteasome (Homo sapiens) (UniProt P49721+P20618+P28074+P28062+P28065+P28072+P25786+P25787+P25788+P25789+P28066+P60900+O14818+Q8TAA3+P40306+A5LHX3+P49720+P28070+Q99436)
- Protocol Notes: Activation of human erythrocyte-derived 20s proteosome using CT-L as peptide substrate by fluorescence based analysis
- Type: cell-based
- Condition Details: filed as activator
Measurement Kind: EC200 (µM)

INSERT INTO measurements (smiles_data, recorded_result) VALUES
  ('CCCNc1cc(Nc2cccc(C)c2)c2c3c(onc13)-c1ccccc1C2=O', 0.4),
  ('O=C1c2cccc(O)c2C(=O)c2c(O)cc(C(=O)N3CCc4ccccc4C3)cc21', 1.14),
  ('Cc1cccc(NC(=O)c2cc(O)c3c(c2)C(=O)c2cccc(O)c2C3=O)c1', 1.67),
  ('O=C1c2cccc(O)c2C(=O)c2c(O)cc(C(=O)N3CCC(c4ccccc4)CC3)cc21', 1.37),
  ('CC(C)CNC(=O)c1cc(O)c2c(c1)C(=O)c1cccc(O)c1C2=O', 2.15);

* * *

- System Under Test: 20S proteasome (Homo sapiens) (UniProt P49721+P20618+P28074+P28062+P28065+P28072+P25786+P25787+P25788+P25789+P28066+P60900+O14818+Q8TAA3+P40306+A5LHX3+P49720+P28070+Q99436)
- Protocol Notes: Activation of human erythrocyte-derived 20s proteosome using CT-L as peptide substrate by fluorescence based analysis
- Assay type: cell-based
- Condition Details: filed as activator
Measured EC200 values are reported for all entries that follow.
Measurement Kind: EC200 (µM)

INSERT INTO measurements (smiles_data, measurement_kind, u, recorded_result) VALUES
  ('CC(C)CNc1cc(NC2CC2)c2c3c(onc13)-c1ccccc1C2=O', 'EC200', 'µM', 1.41),
  ('O=C(Nc1ccc(N2CCOCC2)cc1)c1cc(O)c2c(c1)C(=O)c1cccc(O)c1C2=O', 'EC200', 'µM', 0.2),
  ('CCOC(=O)[C@]1(c2ccccc2)N=C(c2ccc(OC)cc2)N(Cc2ccccc2)[C@@H]1c1ccc(NCc2ccccc2)cc1', 'EC200', 'µM', 0.91);

* * *

- System Under Test: 20S proteasome
- Protocol Notes: Activation of human erythrocyte-derived 20s proteosome using Casp-L as peptide substrate by fluorescence based analysis
- Type: cell-based
pEC50: −log10 of the molar value.
Measurement Kind: pEC50

INSERT INTO assay_data (smiles_data, measurement_kind, recorded_result) VALUES
  ('Cc1cccc(Nc2cc(NCC(C)C)c3noc4c3c2C(=O)c2ccccc2-4)c1', 'pEC50', 5.72);

* * *

- System Under Test: 20S proteasome (Homo sapiens) (UniProt P49721+P20618+P28074+P28062+P28065+P28072+P25786+P25787+P25788+P25789+P28066+P60900+O14818+Q8TAA3+P40306+A5LHX3+P49720+P28070+Q99436)
- Protocol Notes: Activation of human erythrocyte-derived 20s proteosome using CT-L as peptide substrate at 10 uM by fluorescence based analysis relative to control
- Assay type: cell-based
- Condition Details: filed as activator
Measurement Kind: Activity (%)

INSERT INTO results (smiles_data, recorded_result) VALUES
  ('CCCNc1cc(Nc2cccc(C)c2)c2c3c(onc13)-c1ccccc1C2=O', 594),
  ('Cc1ccccc1Nc1cc(NCC(C)C)c2noc3c2c1C(=O)c1ccccc1-3', 486),
  ('O=C1c2cccc(O)c2C(=O)c2c(O)cc(C(=O)N3CCC(c4ccccc4)CC3)cc21', 233),
  ('O=C1c2cccc(O)c2C(=O)c2c(O)cc(C(=O)N3CCc4ccccc4C3)cc21', 350);

* * *

- System Under Test: 20S proteasome (Homo sapiens) (UniProt P49721+P20618+P28074+P28062+P28065+P28072+P25786+P25787+P25788+P25789+P28066+P60900+O14818+Q8TAA3+P40306+A5LHX3+P49720+P28070+Q99436)
- Protocol Notes: Activation of human erythrocyte-derived 20s proteosome using T-L as peptide substrate by fluorescence based analysis
- Format: cell-based
- Condition Details: filed as activator
Measured fold change (FC) values are reported for all entries that follow.
Measurement Kind: fold change (FC)

INSERT INTO measurements (smiles_data, recorded_result) VALUES
  ('Cc1ccccc1Nc1cc(NCC(C)C)c2noc3c2c1C(=O)c1ccccc1-3', 6.38),
  ('CC(C)CNC(=O)c1cc(O)c2c(c1)C(=O)c1cccc(O)c1C2=O', 2.23),
  ('CC(C)CNc1cc(NC2CC2)c2c3c(onc13)-c1ccccc1C2=O', 4.71),
  ('CCCNc1cc(Nc2cccc(C)c2)c2c3c(onc13)-c1ccccc1C2=O', 10.6),
  ('O=C(Nc1ccc(N2CCOCC2)cc1)c1cc(O)c2c(c1)C(=O)c1cccc(O)c1C2=O', 6.36),
  ('Cc1cccc(Nc2cc(NCC(C)C)c3noc4c3c2C(=O)c2ccccc2-4)c1', 5.98),
  ('COc1ccc(Nc2cc(NCC(C)C)c3noc4c3c2C(=O)c2ccccc2-4)cc1', 3.54),
  ('CCOC(=O)[C@]1(c2ccccc2)N=C(c2ccc(OC)cc2)N(Cc2ccccc2)[C@@H]1c1ccc(NCc2ccccc2)cc1', 4.31),
  ('O=C1c2cccc(O)c2C(=O)c2c(O)cc(C(=O)N3CCc4ccccc4C3)cc21', 3.79),
  ('Cc1ccc(Nc2cc(NCC(C)C)c(N)c3c2C(=O)c2ccccc2C3=O)cc1', 5.38);

* * *

- System Under Test: 20S proteasome (Homo sapiens) (UniProt P49721+P20618+P28074+P28062+P28065+P28072+P25786+P25787+P25788+P25789+P28066+P60900+O14818+Q8TAA3+P40306+A5LHX3+P49720+P28070+Q99436)
- Protocol Notes: Activation of human erythrocyte-derived 20s proteosome using CT-L as peptide substrate at 10 uM by fluorescence based analysis relative to control
- Type: cell-based
- Condition Details: filed as activator
Please use condition met whenever Activity is not below 400%, and condition not met whenever it is.

INSERT INTO assay_data (smiles_data, category) VALUES
  ('O=C1c2cccc(O)c2C(=O)c2c(O)cc(C(=O)N3CCN(c4nccs4)CC3)cc21', 'condition met'),
  ('COc1ccc(Nc2cc(NCC(C)C)c3noc4c3c2C(=O)c2ccccc2-4)cc1', 'condition not met'),
  ('Cc1cccc(Nc2cc(NCCO)c3noc4c3c2C(=O)c2ccccc2-4)c1', 'condition not met'),
  ('CC(C)CNc1cc(NC2CC2)c2c3c(onc13)-c1ccccc1C2=O', 'condition not met'),
  ('CCOC(=O)[C@]1(c2ccccc2)N=C(c2ccc(OC)cc2)N(Cc2ccccc2)[C@@H]1c1ccc(NCc2ccccc2)cc1', 'condition met'),
  ('Cc1cccc(Nc2cc(NCCC(C)C)c3noc4c3c2C(=O)c2ccccc2-4)c1', 'condition not met'),
  ('O=C(NCCN1CCOCC1)c1cc(O)c2c(c1)C(=O)c1cccc(O)c1C2=O', 'condition not met'),
  ('CC(C)CNc1cc(Nc2ccc(N3CCOCC3)cc2)c2c3c(onc13)-c1ccccc1C2=O', 'condition met'),
  ('O=C(Nc1ccc(N2CCOCC2)cc1)c1cc(O)c2c(c1)C(=O)c1cccc(O)c1C2=O', 'condition met'),
  ('Cc1cccc(NC(=O)c2cc(O)c3c(c2)C(=O)c2cccc(O)c2C3=O)c1', 'condition met'),
  ('CN(CCc1ccccc1)C(=O)c1cc(O)c2c(c1)C(=O)c1cccc(O)c1C2=O', 'condition not met'),
  ('Cc1ccc(Nc2cc(NCC(C)C)c3noc4c3c2C(=O)c2ccccc2-4)cc1', 'condition not met'),
  ('Cc1cccc(Nc2cc(NCCN3CCOCC3)c3noc4c3c2C(=O)c2ccccc2-4)c1', 'condition not met'),
  ('Cc1ccc(Nc2cc(NCC(C)C)c(N)c3c2C(=O)c2ccccc2C3=O)cc1', 'condition not met'),
  ('COc1ccc(NC(=O)c2cc(O)c3c(c2)C(=O)c2cccc(O)c2C3=O)cc1', 'condition met'),
  ('O=C1c2ccccc2-c2onc3c(NCN4CCCCC4)cc(NCN4CCCCC4)c1c23', 'condition not met'),
  ('Cc1cccc(Nc2cc(NCC(C)C)c3noc4c3c2C(=O)c2ccccc2-4)c1', 'condition met'),
  ('CC(C)CNC(=O)c1cc(O)c2c(c1)C(=O)c1cccc(O)c1C2=O', 'condition not met'),
  ('CN1CCN(c2ccc(NC(=O)c3cc(O)c4c(c3)C(=O)c3cccc(O)c3C4=O)cc2)CC1', 'condition met'),
  ('COc1ccc(Nc2cc(NCC(C)C)c(N)c3c2C(=O)c2ccccc2C3=O)cc1', 'condition not met');

All figures here come from ChEMBL document CHEMBL6096634.
